Collected kon values appear next to each entry.
Biological target: T1, recombinant human CLL-1 extracellular domain (ECD, amino acids 65-265) fused to an N-terminal Flag (human, UniProt Q5QGZ9 65-265)
T1 construct: The construct and the K244Q SNP are stated for the immunogen; they are not written as a piece; also called huCLL-1-Flag; huCLL-1
T1 chain: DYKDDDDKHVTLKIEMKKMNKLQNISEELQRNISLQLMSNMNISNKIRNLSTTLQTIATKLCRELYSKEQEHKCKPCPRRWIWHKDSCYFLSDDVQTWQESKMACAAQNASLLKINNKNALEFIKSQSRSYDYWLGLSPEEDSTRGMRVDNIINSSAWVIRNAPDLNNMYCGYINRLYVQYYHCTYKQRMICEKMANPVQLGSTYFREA
Experiment: SPR (Biacore T200), IgG captured by anti-human Fc, CLL-1 as analyte
Please don't drop the unit; write it after the number.

Sample answers from the record:
Query: What does the record list as kon for 21C9.L2H3A54 (antibody, V domains shown) VH: EVQLVQSGAEVKKPGASVKVSCKASGYTFTDYYLDWVRQAPGQGLEWIGRVNPYAGGTIYNQKFKGRVTLTRDTSTSTAYLELSSLRSEDTAVYYCARDHYRYDPLLDYWGQGTLVTVSS VL: DIQMTQSPSSLSASVGDRVTITCKASQDVSTAVAWFQQKPGKAPKLLIYSPSYRYTGVPSRFSGSGSGTDFTLTISSLQPEDFATYYCQQLYSTPYTFGQGTKVEIK ?
Response: 111000 M⁻¹ s⁻¹

Query: What does the record list as kon for 21C9.L2H3S54 (antibody, V domains shown) VH: EVQLVQSGAEVKKPGASVKVSCKASGYTFTDYYLDWVRQAPGQGLEWIGRVNPYSGGTIYNQKFKGRVTLTRDTSTSTAYLELSSLRSEDTAVYYCARDHYRYDPLLDYWGQGTLVTVSS VL: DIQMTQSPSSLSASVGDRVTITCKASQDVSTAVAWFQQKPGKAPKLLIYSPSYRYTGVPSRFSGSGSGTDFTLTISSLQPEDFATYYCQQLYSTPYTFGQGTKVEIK ?
Response: 142000 M⁻¹ s⁻¹

Query: What does the record list as kon for 6E7.L4H1eE54 (antibody, V domains shown, IgG) VH: EVQLVQSGAEVKKPGASVKVSCKASGYSFTDYYMHWVRQAPGQGLEWIGRINPYEGAAFYSQNFKDRVTLTVDTSTSTAYLELSSLRSEDTAVYYCAIERGADLEGYAMDYWGQGTLVTVSS VL: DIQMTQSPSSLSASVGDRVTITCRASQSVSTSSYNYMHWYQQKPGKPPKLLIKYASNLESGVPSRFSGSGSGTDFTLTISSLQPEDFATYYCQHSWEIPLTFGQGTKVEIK ?
Response: 488000 M⁻¹ s⁻¹

Query: What does the record list as kon for 21C9.L2H3E54 (antibody, V domains shown) VH: EVQLVQSGAEVKKPGASVKVSCKASGYTFTDYYLDWVRQAPGQGLEWIGRVNPYEGGTIYNQKFKGRVTLTRDTSTSTAYLELSSLRSEDTAVYYCARDHYRYDPLLDYWGQGTLVTVSS VL: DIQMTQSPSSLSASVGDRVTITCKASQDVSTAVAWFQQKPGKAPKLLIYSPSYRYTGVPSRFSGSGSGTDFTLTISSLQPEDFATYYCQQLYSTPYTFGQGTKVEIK ?
Response: 102000 M⁻¹ s⁻¹

Continuing:
Query: What does the record list as kon for 6E7.L4H1eD54 (antibody, V domains shown, IgG; also called h6E7D; H6E7.L4H1D54) VH: EVQLVQSGAEVKKPGASVKVSCKASGYSFTDYYMHWVRQAPGQGLEWIGRINPYDGAAFYSQNFKDRVTLTVDTSTSTAYLELSSLRSEDTAVYYCAIERGADLEGYAMDYWGQGTLVTVSS VL: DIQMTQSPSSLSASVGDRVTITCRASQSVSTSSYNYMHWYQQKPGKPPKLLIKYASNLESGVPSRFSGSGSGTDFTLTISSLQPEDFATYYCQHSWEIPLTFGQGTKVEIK ?
Response: 304000 M⁻¹ s⁻¹

Query: What does the record list as kon for 6E7.L4H1e (antibody, V domains shown, humanized, assessed in the form of an IgG; also called humanized 6E7.L4H1e; h6E7) VH: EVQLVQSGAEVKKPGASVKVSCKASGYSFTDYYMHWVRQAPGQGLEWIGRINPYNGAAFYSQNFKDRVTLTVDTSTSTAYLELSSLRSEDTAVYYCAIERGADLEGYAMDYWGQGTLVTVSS VL: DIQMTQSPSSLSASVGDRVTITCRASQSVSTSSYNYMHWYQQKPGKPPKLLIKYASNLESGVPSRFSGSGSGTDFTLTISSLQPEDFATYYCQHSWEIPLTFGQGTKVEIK ?
Response: 910000 M⁻¹ s⁻¹

Query: What does the record list as kon for 6E7.L4H1eS54 (antibody, V domains shown, IgG) VH: EVQLVQSGAEVKKPGASVKVSCKASGYSFTDYYMHWVRQAPGQGLEWIGRINPYSGAAFYSQNFKDRVTLTVDTSTSTAYLELSSLRSEDTAVYYCAIERGADLEGYAMDYWGQGTLVTVSS VL: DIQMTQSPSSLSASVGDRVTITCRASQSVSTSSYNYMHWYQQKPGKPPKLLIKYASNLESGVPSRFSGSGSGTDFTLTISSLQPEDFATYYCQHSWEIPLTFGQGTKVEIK ?
Response: 510000 M⁻¹ s⁻¹
